Each entry below carries its measured GI50, system: EKVX.

COMPOUND	ASSAY TARGET	GI50
O=C1/C(=C/C(Cl)=C/c2ccc([N+](=O)[O-])cc2)SC(=S)N1/N=C\C(Cl)=C\c1ccc([N+](=O)[O-])cc1	EKVX	23700 nM
O=C(O)C(Cc1ccccc1)N1C(=O)/C(=C/C(Cl)=C/c2ccc([N+](=O)[O-])cc2)SC1=S (centres unmarked)	EKVX	2590 nM
O=C1NC(=S)S/C1=C\C(Cl)=C\c1ccc([N+](=O)[O-])cc1	EKVX	2760 nM
O=C(O)CCN1C(=O)/C(=C/C(Cl)=C/c2ccc([N+](=O)[O-])cc2)SC1=S	EKVX	334 nM
O=C1/C(=C/C(Cl)=C/c2ccc([N+](=O)[O-])cc2)SC(=S)N1c1ccc(O)cc1	EKVX	2370 nM

Sourced from paper PMC8161026
